These data points were gathered from PubChem BioAssay (NCI).

Field: growth. Provide a value for each of the compounds that follow.
System: IGROV1 ovarian
Experiment Notes: NCI-60 one-dose screen, 48 h (100 = growth as untreated, 0 = no growth, -100 = all killed)
Particulars: 10 µM
About 83,000 compounds went through this panel and 20% of them were active in at least one assay; those are over-represented in the sample as a whole.
Your answer is read as %, so omit the unit and give the number.

Name the recorded growth of the compound listed here: `COC(=O)C[C@](O)(CCCC(C)(C)O)C(=O)O[C@H]1C(OC)=C[C@@]23CCC(=O)N2CCc2cc4c(cc2[C@@H]13)OCO4` 93

Name the recorded growth of the compound listed here: CN1C(=O)N(C)C2SC(N/N=C/c3ccccc3)=NC21 (centres undefined) 64.5

Name the recorded growth of the compound listed here: `CC1(C)CC[C@]2(C(=O)Nc3ccccc3)CC[C@]3(C)C(=CC[C@@H]4[C@@]5(C)CC[C@H](N)C(C)(C)[C@@H]5CC[C@]43C)[C@H]2C1` 96

Name the recorded growth of the compound listed here: `Cc1ccc2nc(-c3ccc(-c4nnc(SCC(=O)Nc5ccc(Cl)cc5)o4)cc3)[nH]c2c1` 37.8

Name the recorded growth of the compound listed here: C=C1CCC2C3(C)COC(c4c(F)cccc4F)OC3CCC2(C)C1CC(O)C1=CCOC1=O (centres undefined) 59.3

Name the recorded growth of the compound listed here: `O=C(Nc1ccccc1)Nc1nc2ccccc2s1` 54.8

Name the recorded growth of the compound listed here: `c1ccc(C(=C(c2ccc(OCCN3CCCCC3)cc2)c2ccc(OCCN3CCCCC3)cc2)C2CCCC2)cc1` -85.8

Name the recorded growth of the compound listed here: `Cc1noc2c(Cc3ccccc3)nn(CC(=O)N/N=C/c3ccc(Cl)cc3)c(=O)c12` 41

Name the recorded growth of the compound listed here: CN1C(=O)N(C)C2SC(N/N=C/c3ccccc3F)=NC21 (centres undefined) 56.6
